Tested on: Candida albicans
assay remarks: In vitro Minimum inhibitory concentration (MIC) for antifungal activity against Candida albicans 1208
Format: functional
observable: MIC (µg/mL)

compound	MIC [µg/mL]
CO[C@H]1C(OC(=O)CCCCCl)C(O)[C@H](OCC23C[C@@H]4[C@H](C)CC[C@H]4C4(C=O)CC2C=C(C(C)C)C34C(=O)O)O[C@@H]1C (single isomer, unassigned)	2

P = COC1C(O)C(O)[C@H](OCC23C[C@@H]4[C@H](C)CC[C@H]4C4(C=O)CC2C=C(C(C)C)C34C(=O)O)O[C@@H]1C (single isomer, unassigned)
Q = CO[C@@H]1[C@@H](C)O[C@@H](OCC23C[C@@H]4[C@H](C)CC[C@H]4C4(C=O)CC2C=C(C(C)C)C34C(=O)O)C(O)[C@@H]1OC(=O)OCc1ccccc1 (stereo not given in full)
R = C/C=C/C=C(\C)C(=O)O[C@H]1C(O)[C@H](OCC23C[C@@H]4[C@H](C)CC[C@H]4C4(C=O)CC2C=C(C(C)C)C34C(=O)O)O[C@H](C)[C@H]1OC (stereo not given in full)
S = CCCCCCCC(=O)OC1C(O)[C@H](OCC23C[C@@H]4[C@H](C)CC[C@H]4C4(C=O)CC2C=C(C(C)C)C34C(=O)O)O[C@H](C)[C@H]1OC (single isomer, unassigned)
// sort entries: MIC, high to low Please express your ranking as an ordered list of the labels.
P, Q, R, S

* * *

System: Kluyveromyces marxianus
assay remarks: In vitro Minimum inhibitory concentration (MIC) for antifungal activity against Candida pseudotropicalis 2371
Type: functional
observable: MIC (µg/mL)

a = CCCCCCCCOC(=O)O[C@H]1C(O)[C@H](OCC23C[C@@H]4[C@H](C)CC[C@H]4C4(C=O)CC2C=C(C(C)C)C34C(=O)O)O[C@H](C)[C@H]1OC (stereo not given in full)
b = CCCCC(C)C(=O)OC1C(O)[C@H](OCC23C[C@@H]4[C@H](C)CC[C@H]4C4(C=O)CC2C=C(C(C)C)C34C(=O)O)O[C@H](C)[C@H]1OC (single isomer, unassigned)
c = CO[C@H]1C(OC(=O)CCCCCl)C(O)[C@H](OCC23C[C@@H]4[C@H](C)CC[C@H]4C4(C=O)CC2C=C(C(C)C)C34C(=O)O)O[C@@H]1C (single isomer, unassigned)
d = CCCCCCCCNC(=O)O[C@H]1C(O)[C@H](OCC23C[C@@H]4[C@H](C)CC[C@H]4C4(C=O)CC2C=C(C(C)C)C34C(=O)O)O[C@H](C)[C@H]1OC (stereo not given in full)
e = CCCCCC(=O)OC1C(O)[C@H](OCC23C[C@@H]4[C@H](C)CC[C@H]4C4(C=O)CC2C=C(C(C)C)C34C(=O)O)O[C@H](C)[C@H]1OC (single isomer, unassigned)
Form: Sort by [MIC] Order [ ascending ] The response must list the labels following the requested ordering.
e, b, a, c, d
(e: 0.01 µg/mL, b: 0.06 µg/mL, a: 0.12 µg/mL, c: 0.25 µg/mL, d: 1 µg/mL)

* * *

Test system: Kluyveromyces marxianus
assay remarks: In vitro Minimum inhibitory concentration (MIC) for antifungal activity against Candida pseudotropicalis 2371
Format: functional
observable: MIC (µg/mL)

Sample answers from the record:
molecule	quantity unit	MIC
CO[C@H]1C(OC(=O)c2ccco2)C(O)[C@H](OCC23C[C@@H]4[C@H](C)CC[C@H]4C4(C=O)CC2C=C(C(C)C)C34C(=O)O)O[C@@H]1C (single isomer, unassigned)	µg/mL	4
COCC(=O)OC1C(O)[C@H](OCC23C[C@@H]4[C@H](C)CC[C@H]4C4(C=O)CC2C=C(C(C)C)C34C(=O)O)O[C@H](C)[C@H]1OC (single isomer, unassigned)	µg/mL	16
C/C=C/C=C(\C)C(=O)O[C@H]1C(O)[C@H](OCC23C[C@@H]4[C@H](C)CC[C@H]4C4(C=O)CC2C=C(C(C)C)C34C(=O)O)O[C@H](C)[C@H]1OC (stereo partly specified)	µg/mL	0.03
CCCC(=O)OC1C(O)[C@H](OCC23C[C@@H]4[C@H](C)CC[C@H]4C4(C=O)CC2C=C(C(C)C)C34C(=O)O)O[C@H](C)[C@H]1OC (single isomer, unassigned)	µg/mL	0.5

a = CO[C@@H]1[C@@H](C)O[C@@H](OCC23C[C@@H]4[C@H](C)CC[C@H]4C4(C=O)CC2C=C(C(C)C)C34C(=O)O)C(O)[C@@H]1OC(=O)OCc1ccccc1 (stereo partly specified)
b = CO[C@H]1C(OC(=O)c2ccccc2)C(O)[C@H](OCC23C[C@@H]4[C@H](C)CC[C@H]4C4(C=O)CC2C=C(C(C)C)C34C(=O)O)O[C@@H]1C (single isomer, unassigned)
Kindly identify which of a and b has the larger recorded MIC value. Your answer should be the label attached to the chosen record.
a

Data origin, for the record: ChEMBL document CHEMBL1135358
